- measured-target: TNFα (Homo sapiens, UniProt P01375)
- Sequence (P01375 77-233 limits assumed): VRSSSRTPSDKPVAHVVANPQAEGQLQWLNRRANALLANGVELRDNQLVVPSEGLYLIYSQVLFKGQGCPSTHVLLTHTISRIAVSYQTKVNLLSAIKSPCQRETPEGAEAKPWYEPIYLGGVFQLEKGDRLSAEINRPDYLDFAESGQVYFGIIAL
- method-notes: TNF induced HEK-Blue assay (NF-kB-driven secreted alkaline phosphatase reporter)
- Format: cell-based
- run-parameters: TNFα 0.5 ng/mL, HEK-Blue-CD40L cells, 18 h; read-out: TNF induced HEK-Blue assay IC50 value
Listing of recorded IC50 by entry.

Example entries begin here.
For the compound `Cc1nc2ccc(-c3cnc(C(C)(C)O)nc3)cc2c(N[C@H](C)c2cc(O)ccc2F)c1Cl` , what IC50 is on record?
< 1 µM

And CC(Nc1c(Cl)cnc2ccc(-c3cnc(C(C)(C)O)nc3)cc12)c1nc(C(N)=O)ccc1F (racemic) ?
< 1 µM

And `Cc1nc2cc(F)c(-c3ccc(=O)[nH]c3)cc2c(N[C@H](C)c2cc(C#N)ccc2F)c1Cl` ?
< 1 µM

And `CC(C)(O)c1ncc(-c2cc3c(N[C@@H](c4cc(C(N)=O)ccc4F)C(F)F)c(Cl)cnc3cc2F)cn1` ?
< 1 µM

And CC(Nc1c(Cl)cnc2cc(F)c(-c3cnc(C(O)CN4CCC(C(=O)O)CC4)nc3)cc12)c1ccccc1F (single isomer, unassigned) ?
< 1 µM

Next:
For the compound `C[C@@H](Nc1c(Cl)cnc2ccc(-c3ccc(C(C)(C)O)cc3)cc12)c1cnccn1` , what IC50 is on record?
< 1 µM

And `C[C@@H](Nc1c(Cl)cnc2ccccc12)c1cc(-c2cccnc2N)ccc1F` ?
10 to 25 µM

And `CC(C)(O)c1ncc(-c2nc3c(N[C@H](c4cc(C(=O)O)ccc4F)C(F)F)c(Cl)cnc3cc2F)cn1` ?
1 to 10 µM

And CC(Nc1c(Cl)cnc2ccc(-c3ccc(C(C)(C)O)cc3)cc12)c1cncn1C (racemic) ?
< 1 µM

And `Cc1ccc(Br)cc1Nc1c(Cl)c(C)nc2ccccc12` ?
10 to 25 µM

And `CC(C)(O)c1ncc(-c2ccc3ncc(Cl)c(NC4(c5ccccc5F)CC4)c3c2)cn1` ?
< 1 µM

====

Listing of recorded pIC50 by entry.
- measured-target: TNFα (Homo sapiens, UniProt P01375)
- method-notes: TNF induced HEK-Blue assay (NF-kB-driven secreted alkaline phosphatase reporter)
- Type: cell-based
- run-parameters: TNFα 0.5 ng/mL, HEK-Blue-CD40L cells, 18 h; read-out: TNF induced HEK-Blue assay IC50 value
pIC50: −log10 of the molar value.

Can you look up pIC50 on TNFα (Homo sapiens, UniProt P01375) for `Cc1nc2cc(F)c(-c3cnc(C(C)(C)O)nc3)nc2c(N[C@H](C)c2cc(C(N)=O)ccc2F)c1Cl` ?
> 6.00

Next:
Can you look up pIC50 on TNFα (Homo sapiens, UniProt P01375) for `C[C@@H](Nc1c(Cl)cnc2ccc(-c3cnc(C(C)(C)O)nc3)cc12)c1cc(Br)ccc1F` ?
> 6.00

And Cc1nc2ccc(-c3ccc(C(C)(C)O)cc3)cc2c(NC(C)c2ccsc2)c1Cl (stereo not shown) ?
5.00 to 6.00

And CC(Nc1c(Cl)cnc2ccc(-c3cnc(C(C)(C)O)nc3)cc12)[C@H]1CCCNC1 (single isomer, unassigned) [Example 97] ?
> 6.00

And `CCN(Cc1c(Cl)cnc2ccc(-c3cnc(C(C)(C)O)nc3)cc12)c1ccccc1F` ?
> 6.00

And `C[C@@H](Nc1c(Cl)cnc2ccccc12)c1cc(-c2cnc(C3CC3)nc2)ccc1F` ?
5.00 to 6.00

And `CC(=O)c1ccc(F)c([C@@H](C)Nc2c(Cl)cnc3ccc(-c4cnc(C(C)(C)O)nc4)cc23)c1` ?
> 6.00

Values compiled from patent US10865191B2.
